IC50 (nM), cytotoxicity on RT4 cells (Cell Titer-Glo) values, listed per item
target: human SLITRK6 on cells (human, UniProt Q9H5Y7 27-841); test: cell-based or functional assay
MEASUREMENT KIND: IC50 (nM), cytotoxicity on RT4 cells (Cell Titer-Glo)

| BINDER | OBS VALUE |
| --- | --- |
| hu1H2-13-LD038 (8) (antibody, V domains shown, drug-linker LD038 on cysteines freed by TCEP reduction, DAR 8.0; positions not given, also called hu1H2-13 ADC) VH: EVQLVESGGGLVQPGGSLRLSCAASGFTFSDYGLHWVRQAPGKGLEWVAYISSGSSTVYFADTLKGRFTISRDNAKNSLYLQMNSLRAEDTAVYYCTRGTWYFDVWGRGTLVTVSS VL: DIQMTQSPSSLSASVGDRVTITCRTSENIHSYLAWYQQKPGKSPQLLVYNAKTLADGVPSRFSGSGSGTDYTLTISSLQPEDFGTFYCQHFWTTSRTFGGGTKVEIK | 5.06 nM |
| hu1H2-03-LD038 (8) (antibody, V domains shown, drug-linker LD038 on cysteines freed by TCEP reduction, DAR 8.0; positions not given, also called hu1H2-03 ADC) VH: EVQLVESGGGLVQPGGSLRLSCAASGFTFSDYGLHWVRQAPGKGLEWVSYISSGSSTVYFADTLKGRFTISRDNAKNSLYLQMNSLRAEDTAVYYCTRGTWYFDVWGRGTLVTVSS VL: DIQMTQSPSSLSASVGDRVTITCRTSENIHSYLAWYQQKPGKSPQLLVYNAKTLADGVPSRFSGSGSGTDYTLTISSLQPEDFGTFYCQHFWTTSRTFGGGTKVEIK | 7.02 nM |
| hu14G1-03-LD038 (8) (antibody, V domains shown, drug-linker LD038 on cysteines freed by TCEP reduction, DAR 8.0; positions not given, also called hu14G1-03 ADC) VH: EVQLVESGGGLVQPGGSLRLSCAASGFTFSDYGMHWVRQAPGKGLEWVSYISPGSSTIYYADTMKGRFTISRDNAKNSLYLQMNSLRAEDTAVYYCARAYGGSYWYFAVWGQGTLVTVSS VL: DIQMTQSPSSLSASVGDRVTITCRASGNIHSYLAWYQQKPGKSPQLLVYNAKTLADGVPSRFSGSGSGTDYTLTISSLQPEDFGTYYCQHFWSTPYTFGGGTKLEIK | 9.56 nM |

The reported numbers originate from patent US20250296992A1.
